Molecular target: Peregrin (Homo sapiens)
Sequence (whole entry): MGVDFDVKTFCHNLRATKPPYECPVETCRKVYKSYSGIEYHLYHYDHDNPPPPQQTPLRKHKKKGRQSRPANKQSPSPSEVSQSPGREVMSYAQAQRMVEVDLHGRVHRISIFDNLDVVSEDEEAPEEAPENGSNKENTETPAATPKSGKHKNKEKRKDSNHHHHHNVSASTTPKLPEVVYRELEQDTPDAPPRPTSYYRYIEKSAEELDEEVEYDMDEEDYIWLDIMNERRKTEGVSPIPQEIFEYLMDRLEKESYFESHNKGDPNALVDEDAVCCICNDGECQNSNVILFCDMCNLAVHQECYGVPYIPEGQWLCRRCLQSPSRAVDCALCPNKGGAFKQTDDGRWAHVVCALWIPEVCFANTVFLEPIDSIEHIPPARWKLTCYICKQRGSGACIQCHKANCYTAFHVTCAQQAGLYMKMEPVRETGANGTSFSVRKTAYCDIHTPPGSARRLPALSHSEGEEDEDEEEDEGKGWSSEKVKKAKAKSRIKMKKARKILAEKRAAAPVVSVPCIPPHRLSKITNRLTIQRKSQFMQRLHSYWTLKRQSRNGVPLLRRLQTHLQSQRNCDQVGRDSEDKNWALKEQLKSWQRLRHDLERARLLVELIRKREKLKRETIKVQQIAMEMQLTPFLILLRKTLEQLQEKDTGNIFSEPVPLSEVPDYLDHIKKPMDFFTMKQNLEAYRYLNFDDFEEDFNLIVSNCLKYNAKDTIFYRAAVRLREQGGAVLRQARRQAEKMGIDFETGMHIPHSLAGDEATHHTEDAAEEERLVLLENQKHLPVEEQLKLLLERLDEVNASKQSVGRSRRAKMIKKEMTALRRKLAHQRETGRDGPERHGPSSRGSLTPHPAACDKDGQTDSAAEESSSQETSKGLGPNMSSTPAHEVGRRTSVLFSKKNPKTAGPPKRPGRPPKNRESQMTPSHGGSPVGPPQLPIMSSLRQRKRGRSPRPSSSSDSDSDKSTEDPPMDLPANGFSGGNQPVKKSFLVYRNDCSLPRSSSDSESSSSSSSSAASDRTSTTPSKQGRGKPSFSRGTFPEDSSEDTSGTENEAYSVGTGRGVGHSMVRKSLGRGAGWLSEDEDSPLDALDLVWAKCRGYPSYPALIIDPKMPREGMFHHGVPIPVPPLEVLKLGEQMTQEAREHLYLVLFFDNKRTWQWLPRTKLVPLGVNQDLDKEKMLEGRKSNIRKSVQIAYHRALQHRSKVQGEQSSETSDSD
Settings: Compound concentration 20.0 uM, Protein concentration 2.0 uM, Result type QC Liability
property: ΔTm (°C)
Numeric answer only, unit °C assumed.

Known results for compounds:
[[record]]
compound = "CC1CCN(C(=O)[C@@H](CCn2cccc2C#N)NS(=O)(=O)c2cccc3[nH]ccc23)CC1"
property = "ΔTm"
value_units = "°C"
meas_value = -3.16

[[record]]
compound = "CN1CCN(c2ccc(Nc3ncc4cc5n(c4n3)C3(CCCCC3)CNC5=O)nc2)CC1"
property = "ΔTm"
value_units = "°C"
meas_value = -1.56

[[record]]
compound = "CCc1ncnc(N2CCN(C(C)=O)CC2)c1C#Cc1ccc(N)nc1"
property = "ΔTm"
value_units = "°C"
meas_value = -1.29

[[record]]
compound = "C=C1/C(=C\\C=C2/CCC[C@]3(C)[C@@H]([C@H](C)CCCC(C)(C)O)CC[C@@H]23)C[C@@H](O)C[C@@H]1O"
property = "ΔTm"
value_units = "°C"
meas_value = -2.59

[[record]]
compound = "CP(C)(=O)c1ccc(CNC(=O)C2CCN(S(=O)(=O)c3cc(Cl)cc(Cl)c3)CC2)cc1"
property = "ΔTm"
value_units = "°C"
meas_value = -3.29

[[record]]
compound = "Cc1nnc2n1-c1sc3c(c1C(c1ccccc1Cl)=NC2)C[C@H](C(=O)N1CCOCC1)C3"
property = "ΔTm"
value_units = "°C"
meas_value = -1.51

[[record]]
compound = "C=CC(=O)Nc1cc(-c2nn(C3CCC(N4CCN(C(C)=O)CC4)CC3)c3ncnc(N)c23)ccc1Oc1ccccc1 (stereo not drawn)"
property = "ΔTm"
value_units = "°C"
meas_value = -1.27


### Prompt Tell me its ΔTm on Peregrin (Homo sapiens): `Cc1cc2c(-c3ccco3)cnc(N[C@@H]3CCN(C)C[C@H]3C(=O)NC3CCCCC3)c2[nH]c1=O`
### Response -0.68

----------
Target: Peregrin (Homo sapiens) (UniProt P55201)
Conditions: Compound concentration 20.0 uM, Protein concentration 2.0 uM, Result type QC Liability
Entries and their ΔTm
Numeric answer only, unit °C assumed.

Known results for compounds:
[[record]]
compound = "COc1ccc(C(F)(F)F)cc1NC(=O)Nc1ccc(Oc2cc(C)nc(N)n2)c2ccccc12"
property = "ΔTm"
meas_value = 1.59

[[record]]
compound = "CN(C)[C@H]1CCN(c2cc(C(F)(F)F)c(C#N)c(Nc3cccc(CCC(=O)O)c3)n2)C1"
property = "ΔTm"
meas_value = -2.19

[[record]]
compound = "Cn1nc(C(=O)NCc2ccc(C(=O)O)cc2)cc1-c1ccc2[nH]ccc2c1"
property = "ΔTm"
meas_value = -1.95

[[record]]
compound = "NC(=O)OC[C@H](NC(=O)Cn1nc(-c2ccc(Cl)cc2)n(C[C@H](O)C(F)(F)F)c1=O)c1cccc(C(F)(F)F)c1"
property = "ΔTm"
meas_value = -3.24

[[record]]
compound = "Cc1nc2cccnc2n2c(-c3cc(C(C)(C)O)ncc3Cl)nnc12"
property = "ΔTm"
meas_value = -3.02


### Prompt Please look at this compound and report its ΔTm: `COc1cc2c(cc1CC=C(C)C)C(=O)C[C@@H](c1ccc(O)cc1)O2`
### Response 1.25

### Prompt Please look at this compound and report its ΔTm: `CNC(=O)COc1cc2cc(Nc3nc(N4C[C@H](C)C[C@H](C)C4)ncc3Cl)ccc2n(C)c1=O`
### Response -2.08

### Prompt Please look at this compound and report its ΔTm: `Fc1ccc(Cl)cc1-c1nc(Nc2ccncc2)c2nccnc2n1`
### Response -0.76

### Prompt Please look at this compound and report its ΔTm: CCCCC(C)(O)C/C=C/[C@H]1[C@H](O)CC(=O)[C@@H]1CCCCCCC(=O)O (stereo partly specified)
### Response -1.2

### Prompt Please look at this compound and report its ΔTm: CC(C)S(=O)(=O)c1ccccc1Nc1nc(N[C@@H]2CCCN(CCCCCCCNC(=O)COc3cccc4c3C(=O)N(C3CCC(=O)N(C)C3=O)C4=O)C2)ncc1Cl (stereo partly specified)
### Response -2.55

### Prompt Please look at this compound and report its ΔTm: `Cc1cc(NC(=O)c2cccc(NC(=O)/C=C/CN(C)C)c2)ccc1Nc1nccc(-c2cccnc2)n1`
### Response -1.22

### Prompt Please look at this compound and report its ΔTm: `Cc1ncsc1-c1ccc(CNC(=O)[C@@H]2C[C@@H](O)CN2C(=O)[C@@H](NC(=O)C2(F)CC2)C(C)(C)C)c(OCCOc2ccc(CN3CCN(c4cc(-c5ccccc5O)nnc4N)CC3)cc2)c1`
### Response 5.55

----------
Target: Peregrin (Homo sapiens) (UniProt P55201)
Settings: Compound concentration 20.0 uM, Protein concentration 2.0 uM, Result type QC Liability
Binary label based on ΔTm with cut-off -2 °C: below gives condition met, not below gives condition not met.

Examples from the recorded data:
[[record]]
molecule = "C=CC(=O)N1CCC[C@@H](n2nc(-c3ccc(Oc4ccccc4)cc3)c3c(N)ncnc32)C1"
assigned_category = "condition not met"

[[record]]
molecule = "C[C@H](CCC(=O)O)[C@H]1CC[C@H]2[C@@H]3[C@@H](O)C[C@@H]4C[C@H](O)CC[C@]4(C)[C@H]3CC[C@]12C"
assigned_category = "condition not met"

[[record]]
molecule = "C[C@H](NC(=O)c1cnc2n1[C@](C)(Cc1ccc(C#N)cc1)C(=O)N2c1cc(Cl)c(F)c(Cl)c1)C(=O)NC1(c2ccccn2)CC1"
assigned_category = "condition not met"

[[record]]
molecule = "C[C@H](CCC(=O)O)[C@H]1CC[C@H]2[C@@H]3[C@H](O)C[C@@H]4C[C@H](O)CC[C@]4(C)[C@H]3C[C@H](O)[C@]12C"
assigned_category = "condition met"

[[record]]
molecule = "COc1cc(-c2cn(C)c(=O)c3cnccc23)cc(OC)c1CN(C)C"
assigned_category = "condition not met"


### Prompt Consider the molecule `COc1cc(Cl)c(C(=O)N[C@@H](CN[C@H]2CC[C@@H](N)CC2)Cc2ccc(C#N)cc2)cc1-c1ccc(CN[C@H](C)c2ccc(C)cc2)o1` . Is its ΔTm strictly less than -2 °C?
### Response condition met

----------
Target: Fibroblast growth factor receptor 3 (Homo sapiens)
Settings: Compound concentration 20.0 uM, Protein concentration 2.0 uM, Result type QC Liability
Description: Thermal Shift Assay. Domain: start/stop: P449-E759
Short version: ΔTm at least 0.9 °C is Satisfied, less is Not satisfied.

Examples from the recorded data:
[[record]]
compound = "C[C@H](CCC(=O)O)[C@H]1CC[C@H]2[C@@H]3[C@H](O)C[C@@H]4C[C@H](O)CC[C@]4(C)[C@H]3C[C@H](O)[C@]12C"
assigned_category = "Not satisfied"

[[record]]
compound = "CCOP(=O)(OCC)C(=Cc1cc(C(C)(C)C)c(O)c(C(C)(C)C)c1)P(=O)(OCC)OCC"
assigned_category = "Not satisfied"

[[record]]
compound = "CN[C@@H](C)C(=O)N[C@H](C(=O)N1CCC[C@H]1c1nc(C(=O)c2ccc(F)cc2)cs1)C1CCCCC1"
assigned_category = "Satisfied"

[[record]]
compound = "C[C@@H]1CC[C@@]2(OC1)O[C@H]1[C@@H](O)[C@H]3[C@@H]4CC[C@H]5C[C@@H](O[C@@H]6O[C@H](CO)[C@H](O[C@@H]7O[C@H](CO)C(O)[C@H](O[C@@H]8OC[C@@H](O)[C@H](O)[C@H]8O)[C@H]7O[C@@H]7O[C@H](CO)[C@H](O)[C@H](O[C@@H]8O[C@H](CO)[C@@H](O)[C@H](O)[C@H]8O)[C@H]7O)[C@H](O)[C@H]6O)[C@H](O)C[C@]5(C)[C@H]4CC[C@]3(C)[C@H]1[C@@H]2C (stereo partly specified)"
assigned_category = "Not satisfied"

[[record]]
compound = "O=C(NC1CCNCC1)c1n[nH]cc1NC(=O)c1c(Cl)cccc1Cl"
assigned_category = "Not satisfied"

[[record]]
compound = "CCOC(=O)Nc1ccc2c(c1)N(C(=O)CN(CC)CC)c1ccccc1CC2"
assigned_category = "Not satisfied"

[[record]]
compound = "Clc1ccccc1C(c1ccccc1)(c1ccccc1)n1cccn1"
assigned_category = "Not satisfied"

[[record]]
compound = "Cc1ccc(C(=O)Nc2cc(N3CCN(C)CC3)cc(C(F)(F)F)c2)cc1-n1cc(-c2cnn(C)c2C)nn1"
assigned_category = "Satisfied"


### Prompt Textbook exercise: given the entry `CC(C)(C#Cc1ccc(NC(=O)COc2ccccc2C(=O)c2ccccc2)c(Cl)c1)C(=O)O` , state whether its ΔTm is greater than or equal to 0.9 °C.
### Response Not satisfied

### Prompt Textbook exercise: given the entry `Nc1ncc2c(n1)-c1c([nH]c3ccc(C4=CCOCC4)cc13)CCC2` , state whether its ΔTm is greater than or equal to 0.9 °C.
### Response Satisfied
